Test system: U251 CNS
Test: NCI tumour cell line growth inhibition, 48 h
MEASURE: TGI

A selection of reference data follows.
MOLECULE: C(=Nc1ccccc1C1SCCCS1)c1ccccc1
RESULT: > 100 µM
//
MOLECULE: O=C(c1cc(Cl)ccc1Cl)N1CCN(c2ccc(Cl)c(Cl)c2)CC1
RESULT: > 100 µM
//
MOLECULE: COC1C(O)CC(OC2CC(OC3CC(O[C@@H]4C(=O)c5c(cc6cc(OC7CC(OC8CC(O)C(O)C(C)O8)C(O)C(C)O7)c(C)c(O)c6c5O)CC4[C@H](OC)C(=O)C(C)=O)OC(C)C3O)OC(C)C2O)OC1C (stereo not given in full)
RESULT: > 33.3 µM
//
MOLECULE: CC(C)Oc1c(N(Cc2ccccc2)c2ccccc2C2SCCCS2)c(=O)c1=O
RESULT: > 100 µM

Exam item: TGI for CCOC(NC(=O)CC)(C(F)(F)F)C(F)(F)F ?
Marked response: > 100 µM
